Source of measurements: paper PMC7880572

# TARGET: hMAO A (Homo sapiens, UniProt P21397)
# Construct: purchased Sigma-Aldrich
# Sequence (P21397 whole entry): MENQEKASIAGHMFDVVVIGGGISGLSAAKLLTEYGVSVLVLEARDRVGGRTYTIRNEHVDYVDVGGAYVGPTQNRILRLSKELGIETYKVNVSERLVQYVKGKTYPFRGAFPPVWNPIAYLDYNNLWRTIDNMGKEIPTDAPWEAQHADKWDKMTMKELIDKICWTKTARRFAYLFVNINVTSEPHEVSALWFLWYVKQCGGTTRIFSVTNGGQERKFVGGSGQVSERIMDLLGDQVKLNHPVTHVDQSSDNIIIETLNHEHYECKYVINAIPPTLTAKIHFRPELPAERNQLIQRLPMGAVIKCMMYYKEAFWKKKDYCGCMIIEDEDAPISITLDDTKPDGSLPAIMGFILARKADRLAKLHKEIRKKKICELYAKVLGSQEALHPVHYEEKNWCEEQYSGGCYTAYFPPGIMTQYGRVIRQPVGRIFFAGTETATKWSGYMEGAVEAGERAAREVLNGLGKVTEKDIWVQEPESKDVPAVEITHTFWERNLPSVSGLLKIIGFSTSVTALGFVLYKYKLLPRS
# EXPERIMENT_DESCRIPTION: MAO A inhibition (fluorimetric kynuramine assay)
# Format: biochemical
# MEASUREMENT_SETUP: at 10 μM; mean ± SEM, n = 3
ENDPOINT_NAME: inhibition at 10 µM (%)
Write the number in % without appending the unit.

> print(dat)
                                   compound  observed.result
1  O=C1c2ccccc2C(=O)c2c(NCCn3nnc4ccccc43)cccc21               53
2  O=C1c2ccccc2C(=O)c2c(NCCc3c[nH]c4ccccc34)cccc21               25
3  O=C1C(Cl)=C(NCCn2nnc3ccccc32)C(=O)c2ccccc21               21
4    O=C1C(Cl)=C(NCCc2ccccc2)C(=O)c2ccccc21               41
5  O=C1C(Cl)=C(NC(Cc2ccccc2)C(=O)O)C(=O)c2ccccc21 (stereo not drawn)               26

Query string: Provide inhibition at 10 µM value for the following compound: `O=C1c2ccccc2C(=O)c2c(NCCCc3ccccc3)cccc21`
Result string: 50

Query string: Provide inhibition at 10 µM value for the following compound: `O=C1C(Cl)=C(NCCn2cnc3ccccc32)C(=O)c2ccccc21`
Result string: 23

Query string: Provide inhibition at 10 µM value for the following compound: O=C1C(Cl)=C(NC(Cc2c[nH]c3ccccc23)C(=O)O)C(=O)c2ccccc21 (stereo not drawn)
Result string: 22

---

# TARGET: MAO B (Homo sapiens)
# Construct: purchased Sigma-Aldrich
# Sequence (P27338 whole entry): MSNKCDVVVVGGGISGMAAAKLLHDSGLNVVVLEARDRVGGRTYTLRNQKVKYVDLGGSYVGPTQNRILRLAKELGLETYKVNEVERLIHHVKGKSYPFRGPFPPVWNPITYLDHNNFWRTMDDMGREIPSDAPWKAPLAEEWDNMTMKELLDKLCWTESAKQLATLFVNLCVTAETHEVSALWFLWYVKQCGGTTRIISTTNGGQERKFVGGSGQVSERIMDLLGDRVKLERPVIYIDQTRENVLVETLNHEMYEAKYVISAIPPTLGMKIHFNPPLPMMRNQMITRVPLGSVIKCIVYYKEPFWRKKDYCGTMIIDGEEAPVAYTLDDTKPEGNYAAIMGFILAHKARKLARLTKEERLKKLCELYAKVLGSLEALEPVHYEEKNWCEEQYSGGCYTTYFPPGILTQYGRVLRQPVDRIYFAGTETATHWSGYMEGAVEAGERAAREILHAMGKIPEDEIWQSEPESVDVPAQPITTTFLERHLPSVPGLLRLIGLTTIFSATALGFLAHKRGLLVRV
# EXPERIMENT_DESCRIPTION: MAO B inhibition (fluorimetric kynuramine assay, inhibition kinetics)
# Assay type: biochemical
# MEASUREMENT_SETUP: mean ± SEM, n = 3
# Lookup of reported IC50 keyed by entry
Write the number in nM without appending the unit.

Below: 5 molecules and their reported IC50.
> print(dat)
                                   molecule  observed.result
1  O=C1c2ccccc2C(=O)c2c(NCCn3nnc4ccccc43)cccc21              980
2  O=C1C(Cl)=C(NC(Cc2ccccc2)C(=O)O)C(=O)c2ccccc21 (stereo not drawn)             2700
3    O=C1C(Cl)=C(NCCc2ccccc2)C(=O)c2ccccc21               31
4  O=C1c2ccccc2C(=O)c2c(NCCCc3ccccc3)cccc21              240
5     O=C1C(Cl)=C(NCc2ccccc2)C(=O)c2ccccc21              7.7

Query string: Provide IC50 value for the following molecule: `O=C1c2ccccc2C(=O)c2c(NCCc3ccccc3)cccc21`
Result string: 570

Query string: Provide IC50 value for the following molecule: `O=C1C(Cl)=C(NCCn2nnc3ccccc32)C(=O)c2ccccc21`
Result string: 480

Query string: Provide IC50 value for the following molecule: `O=C1C(Cl)=C(NCCc2c[nH]c3ccccc23)C(=O)c2ccccc21`
Result string: 110

Query string: Provide IC50 value for the following molecule: `O=C1C(Cl)=C(NCCCc2ccccc2)C(=O)c2ccccc21`
Result string: 54

---

IC50 values recorded for eeAChE (AChE from electric eel) (Electrophorus electricus)

> print(dat)
                           structure.string  observed.result
1  O=C1c2ccccc2C(=O)c2c(NCCc3c[nH]c4ccccc34)cccc21          1.85 µM
2  O=C1c2ccccc2C(=O)c2c(NCCCc3ccccc3)cccc21          7.84 µM

Query string: Look up eeAChE (AChE from electric eel) (Electrophorus electricus) data: IC50 of `O=C1C(Cl)=C(NCCn2nnc3ccccc32)C(=O)c2ccccc21` , then report it.
Result string: 1.7 µM

---

# Lookup of reported IC50 keyed by entry
# TARGET: Aβ40 (Homo sapiens)
# Construct: samples of Aβ40 (30 μM) were coincubated for 2 h at 25 °C with test molecules; purchased EzBiolab, Carmel, IN, USA
# Sequence (P05067 672-711 limits assumed): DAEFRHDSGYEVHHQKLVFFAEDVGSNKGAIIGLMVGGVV
# EXPERIMENT_DESCRIPTION: Inhibition of self-induced Aβ40 aggregation (ThT fluorescence, HFIP)
# Type: biochemical
# MEASUREMENT_SETUP: Aβ40 30 μM, 2 h at 25 °C, PBS 2% HFIP; mean ± SEM, n = 3; read-out: Aβ40 aggr IC50
Write the number in µM without appending the unit.

Below: 2 compounds and their reported IC50.
> print(dat)
                           structure.string  observed.result
1   O=C1C(Cl)=C(NCCCc2ccccc2)C(=O)c2ccccc21              8.2
2  O=C1c2ccccc2C(=O)c2c(NCCn3nnc4ccccc43)cccc21               11

Consider the record given below.
Query string: Provide IC50 value for the following compound: `O=C1C(Cl)=C(NCCn2nnc3ccccc32)C(=O)c2ccccc21`
Result string: 8.7
